Recorded values, source patent US11780832B2.

System: Pseudomonas aeruginosa OprD negative
measurement_description: MIC, CLSI broth microdilution
Format: cell-based
recorded_metric: MIC (µg/mL)
Your answer is read as µg/mL, so omit the unit and give the number.

[[record]]
compound = "CC(C)(O/N=C(\\C(=O)N[C@H]1CON(C2(C(=O)O)C[C@@H](N3C(=O)c4cc(O)c(O)cc4C3=O)C(=O)O2)C1=O)c1csc(N)n1)C(=O)O (stereo partly drawn)"
recorded_metric = "MIC"
value_measured = 0.12


// MIC lookup, key: Nc1nc(/C(=N/OC(CO)(CCl)C(=O)O)C(=O)N[C@H]2CON(C3(C(=O)O)C[C@H](N4C(=O)c5cc(O)c(O)cc5C4=O)C(=O)O3)C2=O)cs1 (stereo partly drawn) 2

* * *

System: Klebsiella aerogenes VIM-1, SHV-12
Each entry below carries its reported MIC.
Your answer is read as mg/L, so omit the unit and give the number.

Example entries begin here.
[[record]]
compound = "Nc1nc(/C(=N/OC2(C(=O)O)CCC2)C(=O)N[C@H]2CON(C3(C(=O)O)C[C@H](N4C(=O)c5cc(O)c(O)cc5C4=O)C(=O)O3)C2=O)cs1 (stereo partly drawn)"
recorded_metric = "MIC"
value_measured = 1

[[record]]
compound = "Nc1nc(/C(=N/OC2(C(=O)O)COC2)C(=O)N[C@H]2CON(C3(C(=O)O)C[C@H](N4C(=O)c5cc(O)c(O)cc5C4=O)C(=O)O3)C2=O)cs1 (stereo partly drawn)"
recorded_metric = "MIC"
value_measured = 2

[[record]]
compound = "Nc1nc(/C(=N/OC2(C(=O)O)CC3CCC(C2)O3)C(=O)N[C@H]2CON(C3(C(=O)O)C[C@H](N4C(=O)c5cc(O)c(O)cc5C4=O)C(=O)O3)C2=O)cs1 (stereo partly drawn)"
recorded_metric = "MIC"
value_measured = 0.25

[[record]]
compound = "CC(C)(O/N=C(\\C(=O)N[C@H]1CON(C2(C(=O)O)C[C@@H](N3C(=O)c4cc(O)c(O)cc4C3=O)C(=O)O2)C1=O)c1csc(N)n1)C(=O)O (stereo partly drawn)"
recorded_metric = "MIC"
value_measured = 0.25


Continue with the next compound.
Reported MIC for Klebsiella aerogenes VIM-1, SHV-12, given Nc1nc(/C(=N/OC(CO)(CCl)C(=O)O)C(=O)N[C@H]2CON(C3(C(=O)O)C[C@H](N4C(=O)c5cc(O)c(O)cc5C4=O)C(=O)O3)C2=O)cs1 (stereo partly drawn) ? 0.5

* * *

Listed here: molecules with reported MIC for Escherichia coli Isogenic TEM-10.
Your answer is read as µg/mL, so omit the unit and give the number.

Example entries begin here.
[[record]]
molecule = "CC(C)(O/N=C(\\C(=O)N[C@H]1CON(C2(C(=O)O)C[C@H](N3Cc4cc(O)c(O)cc4C3=O)C(=O)O2)C1=O)c1csc(N)n1)C(=O)O (stereo partly drawn) [Cmpd 35]"
value_measured = 0.06

[[record]]
molecule = "Nc1nc(/C(=N/OC2(C(=O)O)CCOCC2)C(=O)N[C@H]2CON(C3(C(=O)O)C[C@H](N4C(=O)c5cc(O)c(O)nc5C4=O)C(=O)O3)C2=O)cs1 (stereo partly drawn) [Cmpd 26]"
value_measured = 0.03


// MIC lookup, key: Nc1nc(/C(=N/OC2(C(=O)O)CC2)C(=O)N[C@H]2CON(C3(C(=O)O)C[C@H](N4C(=O)c5cc(O)c(O)cc5C4=O)C(=O)O3)C2=O)cs1 (stereo partly drawn) [Cmpd 1] 0.0149

* * *

Each entry below carries its reported MIC.
System: Klebsiella pneumoniae CMY-DHA
measurement_description: Synergistic activity: MIC in the presence of Avibactam
Format: cell-based
condition_notes: row r32, in the presence of Avibactam @ 4 μg/mL
Your answer is read as µg/mL, so omit the unit and give the number.

Example entries begin here.
[[record]]
molecule = "Nc1nc(/C(=N/OC2(C(=O)O)CC2)C(=O)N[C@H]2CON(C3(C(=O)O)C[C@H](N4Cc5cc(O)c(O)cc5C4=O)C(=O)O3)C2=O)cs1 (stereo partly shown)"
value_measured = 0.12

[[record]]
molecule = "Nc1nc(/C(=N/OC2(C(=O)O)CC2)C(=O)N[C@H]2CON(C3(C(=O)O)C[C@H](N4C(=O)c5cc(O)c(O)cc5C4=O)C(=O)O3)C2=O)ns1 (stereo partly shown)"
value_measured = 0.25

[[record]]
molecule = "CC(C)(O/N=C(\\C(=O)N[C@@H]1C(=O)N2C(C(=O)[O-])=C(C[n+]3ccccc3)CS[C@H]12)c1csc(N)n1)C(=O)O [Ceftazidime, ceftazidime, reference compound]"
value_measured = 0.12

[[record]]
molecule = "Nc1nc(/C(=N/OC2(C(=O)O)CCC(F)(F)CC2)C(=O)N[C@H]2CON(C3(C(=O)O)C[C@H](N4C(=O)c5cc(O)c(O)cc5C4=O)C(=O)O3)C2=O)cs1 (stereo partly shown)"
value_measured = 0.25

[[record]]
molecule = "Nc1nc(/C(=N/OC2(C(=O)O)CCOCC2)C(=O)N[C@H]2CON(C3(C(=O)O)C[C@H](N4C(=O)c5cc(O)c(O)nc5C4=O)C(=O)O3)C2=O)cs1 (stereo partly shown)"
value_measured = 0.5


// MIC lookup, key: Nc1nc(/C(=N/OC2(C(=O)O)CCOCC2)C(=O)N[C@H]2CON(C3(C(=O)O)C[C@H](N4C(=O)c5cc(O)c(O)cc5C4=O)C(=O)O3)C2=O)cs1 (stereo partly shown) 0.25

What do we get for Nc1nc(/C(=N/OC2(C(=O)O)CC2)C(=O)N[C@H]2CON(C3(C(=O)O)C[C@H](N4C(=O)c5cc(O)c(O)cc5C4=O)C(=O)O3)C2=O)cs1 (stereo partly shown) ? 0.5

* * *

Listed here: compounds with reported MIC for Klebsiella pneumoniae KPC-2.
Your answer is read as µg/mL, so omit the unit and give the number.

[[record]]
compound = "Nc1nc(/C(=N/OC2(C(=O)O)CC2)C(=O)N[C@H]2CON(C3(C(=O)O)C[C@H](N4C(=O)c5cc(O)c(O)cc5C4=O)C(=O)O3)C2=O)cs1 (stereo partly drawn) [Cmpd 1]"
recorded_metric = "MIC"
value_measured = 0.12

[[record]]
compound = "Nc1nc(/C(=N/OC2(C(=O)O)CCC2)C(=O)N[C@H]2CON(C3(C(=O)O)C[C@H](N4C(=O)c5cc(O)c(O)cc5C4=O)C(=O)O3)C2=O)cs1 (stereo partly drawn) [Cmpd 4]"
recorded_metric = "MIC"
value_measured = 0.06


Continue with the next compound.
// MIC lookup, key: Nc1nc(/C(=N/OC2(C(=O)O)CCOCC2)C(=O)N[C@H]2CON(C3(C(=O)O)C[C@H](N4Cc5cc(O)c(O)cc5C4=O)C(=O)O3)C2=O)cs1 (stereo partly drawn) [Cmpd 29] 0.0149

* * *

Tested on: Klebsiella pneumoniae KPC-3
measurement_description: MIC, CLSI broth microdilution
Assay type: cell-based
condition_notes: KPC3, KPC-3, read-out: MIC
recorded_metric: MIC (µg/mL)
Your answer is read as µg/mL, so omit the unit and give the number.

[[record]]
molecule = "CC(C)(O/N=C(\\C(=O)N[C@H]1CON(C2(C(=O)O)C[C@H](N3Cc4cc(O)c(O)cc4C3=O)C(=O)O2)C1=O)c1csc(N)n1)C(=O)O (some centres unmarked) [Cmpd 35]"
unit_abbrev = "µg/mL"
value_measured = 0.25


// MIC lookup, key: Nc1nc(/C(=N/OC(CO)(CCl)C(=O)O)C(=O)N[C@H]2CON(C3(C(=O)O)C[C@H](N4C(=O)c5cc(O)c(O)cc5C4=O)C(=O)O3)C2=O)cs1 (some centres unmarked) [Cmpd 6] 0.03

What do we get for Nc1nc(/C(=N/OC2(C(=O)O)CCC(F)(F)CC2)C(=O)N[C@H]2CON(C3(C(=O)O)C[C@H](N4C(=O)c5cc(O)c(O)cc5C4=O)C(=O)O3)C2=O)cs1 (some centres unmarked) [Cmpd 10] ? 0.06

What do we get for Nc1nc(/C(=N/OC2(C(=O)O)CCC(Cl)(Cl)CC2)C(=O)N[C@H]2CON(C3(C(=O)O)C[C@H](N4C(=O)c5cc(O)c(O)cc5C4=O)C(=O)O3)C2=O)cs1 (some centres unmarked) [Cmpd 12] ? 0.06

What do we get for CC(C)(O/N=C(\C(=O)N[C@H]1CON(C2(C(=O)O)C[C@@H](N3C(=O)c4cc(O)c(O)cc4C3=O)C(=O)O2)C1=O)c1csc(N)n1)C(=O)O (some centres unmarked) [Cmpd 40] ? 0.03

What do we get for Nc1nc(/C(=N/OC2(C(=O)O)CC3CCC(C2)O3)C(=O)N[C@H]2CON(C3(C(=O)O)C[C@H](N4Cc5cc(O)c(O)cc5C4=O)C(=O)O3)C2=O)cs1 (some centres unmarked) [Cmpd 30] ? 0.12

* * *

System: Citrobacter freundii species complex Elevated AmpC
measurement_description: MIC against Elevated AmpC producing strains, compound alone
Assay type: cell-based
condition_notes: row r16
Each entry below carries its reported MIC.

Example entries begin here.
[[record]]
compound = "Nc1nc(/C(=N/OC2(C(=O)O)CCOCC2)C(=O)N[C@H]2CON(C3(C(=O)O)C[C@H](N4C(=O)c5cc(O)c(O)nc5C4=O)C(=O)O3)C2=O)cs1 (stereo partly shown) [Cmpd 26]"
recorded_metric = "MIC"
value_measured = "1 µg/mL"

[[record]]
compound = "Nc1nc(/C(=N/OC2(C(=O)O)CCC(F)(F)CC2)C(=O)N[C@H]2CON(C3(C(=O)O)C[C@H](N4C(=O)c5cc(O)c(O)cc5C4=O)C(=O)O3)C2=O)cs1 (stereo partly shown) [Cmpd 10]"
recorded_metric = "MIC"
value_measured = "0.25 µg/mL"

[[record]]
compound = "Nc1nc(/C(=N/OC2(C(=O)O)CC2)C(=O)N[C@H]2CON(C3(C(=O)O)C[C@H](N4C(=O)c5cc(O)c(O)cc5C4=O)C(=O)O3)C2=O)cs1 (stereo partly shown) [Cmpd 1]"
recorded_metric = "MIC"
value_measured = "0.5 µg/mL"

[[record]]
compound = "Nc1nc(/C(=N/OC2(C(=O)O)CCOCC2)C(=O)N[C@H]2CON(C3(C(=O)O)C[C@H](N4C(=O)c5cc(O)c(O)cc5C4=O)C(=O)O3)C2=O)cs1 (stereo partly shown) [Cmpd 8]"
recorded_metric = "MIC"
value_measured = "0.25 µg/mL"

[[record]]
compound = "Nc1nc(/C(=N/OC2(C(=O)O)CC2)C(=O)N[C@H]2CON(C3(C(=O)O)C[C@H](N4C(=O)c5cc(O)c(O)cc5C4=O)C(=O)O3)C2=O)ns1 (stereo partly shown) [Cmpd 18]"
recorded_metric = "MIC"
value_measured = "1 µg/mL"


// MIC lookup, key: CC(C)(O/N=C(\C(=O)N[C@@H]1C(=O)N2C(C(=O)[O-])=C(C[n+]3ccccc3)CS[C@H]12)c1csc(N)n1)C(=O)O [Ceftazidime, ceftazidime, reference compound] > 32 µg/mL

What do we get for Nc1nc(/C(=N/OC2(C(=O)O)CC2)C(=O)N[C@H]2CON(C3(C(=O)O)C[C@H](N4Cc5cc(O)c(O)cc5C4=O)C(=O)O3)C2=O)cs1 (stereo partly shown) [Cmpd 28] ? 1 µg/mL
